Target: GST-RORγ LBD (263-509) (Homo sapiens)
Construct: GST-RORγ LBD ((263-509) (produced at ChemPartner))
Assay: TR-FRET assay of agonistic activity on RORγ receptor
Assay type: biochemical
Conditions: maximum activation rate, TOP of fitted curve
READOUT KIND: Emax (%)

1) COCC(C(=O)Nc1ccc(-c2ccc(S(=O)(=O)C3CC3)cc2)c(C(F)(F)F)c1)c1ccc(S(C)(=O)=O)cc1 (single isomer, unassigned) [Example 43]: 194
2) CCS(=O)(=O)c1ccc(CC(=O)Nc2cc(Cl)c(-c3ccc(S(C)(=O)=O)cc3)c(Cl)c2)cc1 [Example 2]: 210
3) CCS(=O)(=O)c1ccc(C(CO)C(=O)Nc2cc(Cl)c(-c3ccc(S(=O)(=O)C4CC4)cc3)c(Cl)c2)cc1 (single isomer, unassigned) [Example 38]: 190
4) CS(=O)(=O)c1ccc(CC(=O)Nc2cc(Cl)c(-c3ccc(S(=O)(=O)C4CC4)cc3)c(Cl)c2)cc1 [Example 11]: 167
5) CCS(=O)(=O)c1ccc(C(CO)C(=O)Nc2cc(Cl)c(-c3ccc(S(=O)(=O)C4CC4)cc3)c(Cl)c2)cc1 (stereo not drawn) [Example 22-1]: 179
6) CCS(=O)(=O)c1ccc(-c2c(Cl)cc(NCC(C(=O)O)c3ccc(S(=O)(=O)CC)cc3)cc2Cl)cc1 (stereo not drawn) [Example 12-1]: 186

###

Recorded Emax values for a group of compounds are listed next.
Target: GST-RORγ LBD (263-509) (Homo sapiens, UniProt P51449)
Construct: GST-RORγ LBD ((263-509) (produced at ChemPartner))
Assay: TR-FRET assay of agonistic activity on RORγ receptor
Assay type: biochemical
Conditions: maximum activation rate, TOP of fitted curve
READOUT KIND: Emax (%)

1) CCS(=O)(=O)c1ccc(-c2c(Cl)cc(NC(=O)Cc3ccc(S(C)(=O)=O)cc3)cc2Cl)cc1: 220
2) COCC(C(=O)Nc1ccc(-c2ccc(S(=O)(=O)C3CC3)cc2)c(C(F)(F)F)c1)c1ccc(S(C)(=O)=O)cc1 (stereo not shown) [Example 42]: 194
3) CCS(=O)(=O)c1ccc(-c2c(Cl)cc(NC(=O)Cc3ccc(S(=O)(=O)CC)cn3)cc2Cl)cc1: 222
4) COCC(C(=O)Nc1cc(Cl)c(-c2ccc(S(=O)(=O)C3CC3)cc2)c(Cl)c1)c1ccc(S(C)(=O)=O)cc1 (stereo not shown) [Example 20]: 192

###

Target: RORγt (RORγ-LBD chimeric receptor) (Homo sapiens, UniProt P51449)
Construct: host or cells: HEK293T
Sequence (P51449 269-508 limits assumed): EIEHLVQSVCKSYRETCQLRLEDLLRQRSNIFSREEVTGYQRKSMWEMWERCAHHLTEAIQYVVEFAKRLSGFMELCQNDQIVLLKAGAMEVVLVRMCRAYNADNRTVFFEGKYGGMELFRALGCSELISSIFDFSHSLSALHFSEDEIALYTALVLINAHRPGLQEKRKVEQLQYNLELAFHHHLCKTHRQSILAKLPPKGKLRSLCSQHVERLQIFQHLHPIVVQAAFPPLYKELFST
Experiment: Luciferase reporter gene assay of RORγt agonistic activity in HEK293T cells
Format: cell-based
Parameters: dose or concentration left out as unconfirmed
Details: HEK-293T
// classify: if (Emax < 60%) YES else NO

1. CCS(=O)(=O)c1ccc(-c2c(Cl)cc(NC(=O)C(COC)c3ccc(S(=O)(=O)CC)cc3)cc2Cl)cc1 (stereo not shown): NO
2. CCS(=O)(=O)c1ccc(CC(=O)Nc2cc(Cl)c(-c3ccc(S(C)(=O)=O)cc3)c(Cl)c2)cc1: YES
3. COCC(C(=O)Nc1cc(Cl)c(-c2ccc(S(=O)(=O)C3CC3)cc2)c(Cl)c1)c1ccc(S(C)(=O)=O)cc1 (stereo not shown) [Example 20]: NO
4. CCS(=O)(=O)c1ccc(CC(=O)Nc2cc(Cl)c(-c3ccc(S(C)(=O)=O)cc3)c(Cl)c2)nc1: YES
5. CCS(=O)(=O)c1ccc(C(COC)C(=O)Nc2cc(Cl)c(-c3ccc(S(C)(=O)=O)cc3)c(Cl)c2)cc1 (stereo not shown): NO
6. CS(=O)(=O)c1ccc(-c2c(Cl)cc(NC(=O)Cc3ccc(S(=O)(=O)CCO)cc3)cc2Cl)cc1: YES

Origin of measurements: patent US20220402867A1
